Assay: NCI Yeast Anticancer Drug Screen. Data for the sgs1 mgt1 strain (AID 161);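 also: 0% = growth of cultures given vehicle only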
Conditions: S. cerevisiae sgs1 mgt1 strain, at 50.0 µM, hits give high values
Compounds without any hit were thinned out: in the full panel of roughly 79,000, 15% have a hit.
# growth inhibition per record follows

[
  {
    "molecule": "COc1cc(N=Nc2cccc(S(=O)(=O)O)c2)ccc1NC(=O)c1ccc(C(=O)Nc2ccc(N=Nc3cccc(S(=O)(=O)O)c3)cc2OC)cc1",
    "unitsOfMeasure": "%",
    "growth inhibition": 23
  },
  {
    "molecule": "CC(=O)N1CCN(C=S)CC1",
    "unitsOfMeasure": "%",
    "growth inhibition": -5.65
  },
  {
    "molecule": "CN(C)CCO[Si](C)(c1ccccc1)c1ccc(F)cc1 (stereo not drawn)",
    "unitsOfMeasure": "%",
    "growth inhibition": 20.6
  }
]
